assay_procedure: Aqueous solubility of the compound
Type: physicochemical
condition_label: buffer
readout_label: solubility (µM)

| smiles | unit_string | solubility |
| --- | --- | --- |
| CN(C)C[C@@H](OC(=O)N1Cc2c(NC(=O)c3ccccc3)n[nH]c2C1(C)C)c1ccccc1 | µM | 434 |
| CN(C)C[C@@H](NC(=O)N1Cc2c(NC(=O)c3ccccc3)n[nH]c2C1(C)C)c1ccccc1 | µM | 395 |
| CN(C)C[C@@H](OC(=O)N1Cc2c(NC(=O)c3ccc(F)cc3)n[nH]c2C1(C)C)c1ccccc1 | µM | 404 |

----------
assay_procedure: Oral bioavailability in rat at 10 mg/kg
Assay type: ADME, organism-based
condition_label: in vivo
readout_label: bioavailability (%)

// worked examples, bioavailability included
| compound | bioavailability (%) |
| --- | --- |
| CN(C)C[C@@H](OC(=O)N1Cc2c(NC(=O)c3ccc(F)cc3)n[nH]c2C1(C)C)c1ccccc1 | 9 |
| CN(C)C[C@@H](OC(=O)N1Cc2c(NC(=O)C3CCCO3)n[nH]c2C1(C)C)c1ccccc1 (mixture of isomers) | 20 |
| CN(C)C[C@@H](OC(=O)N1Cc2c(NC(=O)C(C)(C)C(F)(F)F)n[nH]c2C1(C)C)c1ccccc1 | 45 |

1. CN(C)C[C@@H](OC(=O)N1Cc2c(NC(=O)C(C)(C)C)n[nH]c2C1(C)C)c1ccccc1
2. CN(C)C[C@@H](OC(=O)N1Cc2c(NC(=O)C3(C(F)(F)F)CC3)n[nH]c2C1(C)C)c1ccccc1
3. CN(C)C[C@@H](OC(=O)N1Cc2c(NC(=O)c3ccccn3)n[nH]c2C1(C)C)c1ccccc1
## Input Ascending by bioavailability, please. // rank by listing labels in the order requested
## Output 3, 1, 2

----------
target_entity: Serine/threonine-protein kinase PAK 4 (Homo sapiens, UniProt O96013)
Sequence (O96013 whole entry): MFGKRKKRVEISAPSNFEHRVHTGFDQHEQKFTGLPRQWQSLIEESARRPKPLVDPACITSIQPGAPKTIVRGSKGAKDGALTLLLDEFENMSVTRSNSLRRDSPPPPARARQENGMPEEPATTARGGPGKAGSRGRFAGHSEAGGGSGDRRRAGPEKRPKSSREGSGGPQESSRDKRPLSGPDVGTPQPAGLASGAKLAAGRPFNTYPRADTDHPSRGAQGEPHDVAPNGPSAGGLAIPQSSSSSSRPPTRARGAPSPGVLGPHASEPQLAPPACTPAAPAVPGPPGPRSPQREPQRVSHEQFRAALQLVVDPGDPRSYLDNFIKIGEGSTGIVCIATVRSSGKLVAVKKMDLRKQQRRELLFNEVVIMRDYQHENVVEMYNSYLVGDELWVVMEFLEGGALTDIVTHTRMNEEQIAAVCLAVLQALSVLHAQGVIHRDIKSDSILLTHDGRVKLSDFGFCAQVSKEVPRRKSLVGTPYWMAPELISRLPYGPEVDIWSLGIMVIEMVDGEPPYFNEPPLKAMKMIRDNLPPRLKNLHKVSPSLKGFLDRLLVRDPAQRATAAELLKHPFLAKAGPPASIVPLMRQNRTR
readout_label: pKi
Reminder that pKi is minus the log10 of a molar concentration.

## Input Identify the measured pKi of CN1CCN(C(=O)N2Cc3c(n[nH]c3NC(=O)c3ccccc3)C2(C)C)C(c2ccccc2)C1 (stereo unspecified) for Serine/threonine-protein kinase PAK 4 (Homo sapiens, UniProt O96013).
## Output 6.68

----------
assay_procedure: Half life in rat at 5 mg/kg, iv and 10 mg/kg, po
Assay type: ADME, organism-based
condition_label: in vivo
readout_label: half-life (min)

// worked examples, half-life included
| compound | readout_label | recorded_result |
| --- | --- | --- |
| CN(C)C[C@@H](OC(=O)N1Cc2c(NC(=O)C3CCCO3)n[nH]c2C1(C)C)c1ccccc1 (mixture of isomers) | half-life | 30 |
| CN(C)C[C@@H](OC(=O)N1Cc2c(NC(=O)c3ccccn3)n[nH]c2C1(C)C)c1ccccc1 | half-life | 42 |
| CN(C)C[C@@H](OC(=O)N1Cc2c(NC(=O)c3ccc(F)cc3)n[nH]c2C1(C)C)c1ccccc1 | half-life | 66 |
| CN(C)C[C@@H](OC(=O)N1Cc2c(NC(=O)C3(C(F)(F)F)CC3)n[nH]c2C1(C)C)c1ccccc1 | half-life | 90 |

A. CN(C)C[C@@H](OC(=O)N1Cc2c(NC(=O)C(C)(C)C(F)(F)F)n[nH]c2C1(C)C)c1ccccc1
B. CN(C)C[C@@H](OC(=O)N1Cc2c(NC(=O)C(C)(C)C)n[nH]c2C1(C)C)c1ccccc1
## Input Lower half-life: A or B ? Lab log: write the label of the selected item as the result.
## Output B

----------
assay_procedure: Efflux ratio of permeability from basolateral to apical side over apical to basolateral side in human Caco2 cells
Assay type: ADME, cell-based
condition_label: Caco-2
readout_label: efflux ratio

| compound | recorded_result |
| --- | --- |
| CN(C)C[C@@H](NC(=O)N1Cc2c(NC(=O)c3ccccc3F)n[nH]c2C1(C)C)c1ccccc1 | 231 |

1. CN(C)C[C@@H](OC(=O)N1Cc2c(NC(=O)C(C)(C)C)n[nH]c2C1(C)C)c1ccccc1
2. CN1CCN(C(=O)N2Cc3c(n[nH]c3NC(=O)c3ccccc3)C2(C)C)C(c2ccccc2)C1 (stereo unspecified)
3. CN(C)C[C@@H](OC(=O)N1Cc2c(NC(=O)c3ccc(F)cc3F)n[nH]c2C1(C)C)c1ccccc1
4. CN(C)C[C@@H](OC(=O)N1Cc2c(NC(=O)C3CCCCO3)n[nH]c2C1(C)C)c1ccccc1 (mixture of isomers)
5. CN(C)C[C@@H](NC(=O)N1Cc2c(NC(=O)c3ccccc3)n[nH]c2C1(C)C)c1ccccc1
## Input Ascending by efflux ratio, please. // rank by listing labels in the order requested
## Output 3, 4, 1, 2, 5

----------
target_entity: Mitogen-activated protein kinase 1 (Homo sapiens)
Sequence (P28482 whole entry): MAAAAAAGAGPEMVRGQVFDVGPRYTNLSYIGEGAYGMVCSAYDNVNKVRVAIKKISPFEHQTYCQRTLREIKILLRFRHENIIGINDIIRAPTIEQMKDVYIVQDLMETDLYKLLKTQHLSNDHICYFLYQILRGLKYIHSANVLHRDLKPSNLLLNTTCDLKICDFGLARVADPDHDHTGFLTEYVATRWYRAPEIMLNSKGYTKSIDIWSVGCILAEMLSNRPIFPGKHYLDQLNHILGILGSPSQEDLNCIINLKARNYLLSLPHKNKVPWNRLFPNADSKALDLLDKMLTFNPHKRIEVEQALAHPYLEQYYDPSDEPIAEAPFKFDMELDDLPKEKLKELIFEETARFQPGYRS
assay_procedure: Inhibition of Erk2
readout_label: IC50 (nM)
// note: answer is a bare numeric in nM

## Input Identify the measured IC50 of `CN(C)C[C@@H](OC(=O)N1Cc2c(NC(=O)C(C)(C)C)n[nH]c2C1(C)C)c1ccccc1` for Mitogen-activated protein kinase 1 (Homo sapiens).
## Output 170

----------
assay_procedure: Volume of distribution at steady state in rat at 5 mg/kg, iv and 10 mg/kg, po
Type: ADME, organism-based
condition_label: in vivo, read-out: Vdss
readout_label: Vd (L/kg)

// worked examples, Vd included
| compound | Vd / L/kg |
| --- | --- |
| CN(C)C[C@@H](OC(=O)N1Cc2c(NC(=O)c3ccccn3)n[nH]c2C1(C)C)c1ccccc1 | 4.8 |
| CN(C)C[C@@H](OC(=O)N1Cc2c(NC(=O)C3(C(F)(F)F)CC3)n[nH]c2C1(C)C)c1ccccc1 | 2.8 |
| CN(C)C[C@@H](OC(=O)N1Cc2c(NC(=O)C(C)(C)C(F)(F)F)n[nH]c2C1(C)C)c1ccccc1 | 4.3 |
| CN(C)C[C@@H](OC(=O)N1Cc2c(NC(=O)C3CCCO3)n[nH]c2C1(C)C)c1ccccc1 (mixture of isomers) | 2.2 |

I. CN(C)C[C@@H](OC(=O)N1Cc2c(NC(=O)C(C)(C)C)n[nH]c2C1(C)C)c1ccccc1
II. CN(C)C[C@@H](OC(=O)N1Cc2c(NC(=O)c3ccc(F)cc3)n[nH]c2C1(C)C)c1ccccc1
## Input Compare the recorded Vd of I and II ; state which is larger. Lab log: write the label of the selected item as the result.
## Output II

----------
assay_procedure: Clearance in rat at 5 mg/kg, iv and 10 mg/kg, po
Assay type: ADME, organism-based
condition_label: in vivo
readout_label: clearance (mL/min/kg)

| compound | unit_string | clearance |
| --- | --- | --- |
| CN(C)C[C@@H](OC(=O)N1Cc2c(NC(=O)c3ccccn3)n[nH]c2C1(C)C)c1ccccc1 | mL/min/kg | 146 |

1. CN(C)C[C@@H](OC(=O)N1Cc2c(NC(=O)C(C)(C)C)n[nH]c2C1(C)C)c1ccccc1
2. CN(C)C[C@@H](OC(=O)N1Cc2c(NC(=O)C3(C(F)(F)F)CC3)n[nH]c2C1(C)C)c1ccccc1
## Input Lower clearance: 1 or 2 ? Lab log: write the label of the selected item as the result.
## Output 2

----------
assay_procedure: Metabolic stability in human liver microsomes assessed as extraction ratio
Type: ADME, Microsome
condition_label: read-out: ERH
readout_label: hepatic extraction ratio

// worked examples, hepatic extraction ratio included
| compound | readout_label | recorded_result |
| --- | --- | --- |
| CN1CCN(C(=O)N2Cc3c(n[nH]c3NC(=O)c3ccccc3)C2(C)C)C(c2ccccc2)C1 (stereo not drawn) | hepatic extraction ratio | 0.7 |
| CN(C)C[C@@H](OC(=O)N1Cc2c(NC(=O)C3(C(F)(F)F)CCC3)n[nH]c2C1(C)C)c1ccccc1 | hepatic extraction ratio | 0.6 |
| CN(C)C[C@@H](OC(=O)N1Cc2c(NC(=O)C3CCCO3)n[nH]c2C1(C)C)c1ccccc1 (mixture of isomers) | hepatic extraction ratio | 0.4 |

I. CN(C)C[C@H](c1ccccc1)N(C)C(=O)N1Cc2c(NC(=O)c3ccccc3)n[nH]c2C1(C)C
II. CN(C)C[C@@H](OC(=O)N1Cc2c(NC(=O)C3CCCCO3)n[nH]c2C1(C)C)c1ccccc1 (mixture of isomers)
## Input Compare the recorded hepatic extraction ratio of I and II ; state which is larger. Lab log: write the label of the selected item as the result.
## Output II
(II: 1, I: 0.5)

P. CN(C)C[C@@H](OC(=O)N1Cc2c(NC(=O)C3(C(F)(F)F)CC3)n[nH]c2C1(C)C)c1ccccc1
Q. CN(C)C[C@@H](OC(=O)N1Cc2c(NC(=O)c3ccc(F)cc3)n[nH]c2C1(C)C)c1ccccc1
## Input Lower hepatic extraction ratio: P or Q ? Lab log: write the label of the selected item as the result.
## Output P
(P: 0.42, Q: 0.7)

I. CN(C)C[C@@H](OC(=O)N1Cc2c(NC(=O)C(C)(C)C)n[nH]c2C1(C)C)c1ccccc1
II. CN(C)C[C@@H](OC(=O)N1Cc2c(NC(=O)c3ccc(F)cc3F)n[nH]c2C1(C)C)c1ccccc1
## Input Lower hepatic extraction ratio: I or II ? Lab log: write the label of the selected item as the result.
## Output I
(I: 0.44, II: 0.9)

I. CN(C)C[C@@H](NC(=O)N1Cc2c(NC(=O)c3ccccc3F)n[nH]c2C1(C)C)c1ccccc1
II. CN(C)C[C@@H](OC(=O)N1Cc2c(NC(=O)C(C)(C)C(F)(F)F)n[nH]c2C1(C)C)c1ccccc1
## Input Compare the recorded hepatic extraction ratio of I and II ; state which is larger. Lab log: write the label of the selected item as the result.
## Output II

a. CN(C)C[C@@H](NC(=O)N1Cc2c(NC(=O)c3ccccc3)n[nH]c2C1(C)C)c1ccccc1
b. CN(C)C[C@@H](OC(=O)N1Cc2c(NC(=O)c3ccccn3)n[nH]c2C1(C)C)c1ccccc1
## Input Compare the recorded hepatic extraction ratio of a and b ; state which is larger. Lab log: write the label of the selected item as the result.
## Output b
